Target: endogenous MLKL in U937 (Homo sapiens (Human))
Sequence (Q8NB16 whole entry): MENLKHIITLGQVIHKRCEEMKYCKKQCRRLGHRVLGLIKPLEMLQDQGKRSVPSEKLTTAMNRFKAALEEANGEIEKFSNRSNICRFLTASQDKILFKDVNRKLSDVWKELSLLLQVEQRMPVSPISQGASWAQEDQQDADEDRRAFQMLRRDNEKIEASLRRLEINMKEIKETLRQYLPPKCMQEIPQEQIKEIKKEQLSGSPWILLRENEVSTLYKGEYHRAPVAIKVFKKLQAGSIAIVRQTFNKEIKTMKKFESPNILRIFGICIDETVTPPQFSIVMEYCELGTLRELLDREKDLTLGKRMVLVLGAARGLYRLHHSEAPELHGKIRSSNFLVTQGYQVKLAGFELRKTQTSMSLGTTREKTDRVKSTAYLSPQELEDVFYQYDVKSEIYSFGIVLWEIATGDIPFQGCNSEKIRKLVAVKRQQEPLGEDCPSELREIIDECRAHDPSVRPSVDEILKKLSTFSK
Experiment: Degradation assay: degradation of endogenous MLKL in human cells (Western blot)
Conditions: 24 h incubation, read-out: Degradation of endogenous MLKL in U937 (DC50 cell-based assay in μM)
OUTCOME MEASURE: DC50

The molecule `Cc1ncsc1-c1ccc(CNC(=O)[C@@H]2C[C@@H](O)CN2C(=O)[C@@H](NC(=O)CCCCOC(=O)c2ccc(Nc3[nH]nc(-c4ccc(NS(=O)(=O)C(F)F)c(O[C@@H](C)c5ccc(F)cc5)c4)c3C(N)=O)nc2)C(C)(C)C)cc1` , tested on endogenous MLKL in U937 (Homo sapiens (Human)), showed DC50 of 1 to 10 µM

The molecule `Cc1ncsc1-c1ccc(CNC(=O)[C@@H]2C[C@@H](O)CN2C(=O)[C@@H](NC(=O)CCCCCCCn2ccc(Nc3[nH]nc(-c4ccc(NS(=O)(=O)C(F)F)c(O[C@@H](C)c5ccc(F)cc5)c4)c3C(N)=O)n2)C(C)(C)C)cc1` , tested on endogenous MLKL in U937 (Homo sapiens (Human)), showed DC50 of 1 to 10 µM

The molecule `Cc1ncsc1-c1ccc(CNC(=O)[C@@H]2C[C@@H](O)CN2C(=O)[C@@H](NC(=O)c2ccc(COc3ccc(Nc4[nH]nc(-c5ccc(NS(=O)(=O)C(F)F)c(O[C@@H](C)c6ccc(F)cc6)c5)c4C(N)=O)nc3)cc2)C(C)(C)C)cc1` , tested on endogenous MLKL in U937 (Homo sapiens (Human)), showed DC50 of < 1 µM

The molecule `CCS(=O)(=O)Nc1ccc(-c2n[nH]c(Nc3ccc(OCCCCC(=O)N[C@H](C(=O)N4C[C@H](O)C[C@H]4C(=O)NCc4ccc(-c5scnc5C)cc4)C(C)(C)C)cn3)c2C(N)=O)cc1` , tested on endogenous MLKL in U937 (Homo sapiens (Human)), showed DC50 of < 1 µM

The molecule `Cc1ncsc1-c1ccc(CNC(=O)[C@@H]2C[C@@H](O)CN2C(=O)[C@@H](NC(=O)CCCCCOc2ccc(Nc3[nH]nc(-c4ccc(NS(=O)(=O)C(F)F)c(O[C@@H](C)c5ccc(F)cc5)c4)c3C(N)=O)nc2)C(C)(C)C)cc1` , tested on endogenous MLKL in U937 (Homo sapiens (Human)), showed DC50 of < 1 µM

* * *

Quick record: Kd, RIP1 (Homo sapiens (Human)).

Entry under test: Cc1cnc(Nc2[nH]nc(-c3ccc(NS(=O)(=O)CC(F)(F)F)c(OCc4ccc(F)c(Cl)c4)c3)c2C(N)=O)cn1 [Compound 155] . Its Kd was > 30 µM

Entry under test: NC(=O)c1c(-c2ccc(NS(=O)(=O)CC(F)(F)F)cc2)n[nH]c1Nc1cccc(C(F)(F)F)n1 [Compound 43] . Its Kd was > 30 µM

Entry under test: CC(C)S(=O)(=O)Nc1ccc(-c2n[nH]c(Nc3cnccn3)c2C(N)=O)cc1 [Compound 71] . Its Kd was > 30 µM

Entry under test: NC(=O)c1c(-c2ccc(NS(=O)(=O)C(F)F)cc2)n[nH]c1Nc1ccccn1 [Compound 48] . Its Kd was > 30 µM

Entry under test: NC(=O)c1c(-c2ccc(NS(=O)(=O)Cc3ccccc3Cl)cc2)n[nH]c1Nc1cccc(C(F)(F)F)n1 [Compound 58] . Its Kd was > 30 µM

Entry under test: NC(=O)c1c(-c2ccc(NS(=O)(=O)CCc3ccccc3)cc2)n[nH]c1Nc1ccccn1 [Compound 130] . Its Kd was > 30 µM

Entry under test: NC(=O)c1c(-c2ccc(NS(=O)(=O)C(F)F)c(Oc3ccc(F)cc3)c2)n[nH]c1Nc1cccc(C(F)(F)F)n1 [Compound 147] . Its Kd was > 30 µM

Entry under test: C[C@H](Oc1cc(-c2n[nH]c(Nc3cnc(C4CC4)cn3)c2C(N)=O)ccc1NS(=O)(=O)C(F)F)c1ccc(F)cc1 [Compound 316] . Its Kd was > 30 µM

Entry under test: C[C@H](Oc1cc(-c2c(C(N)=O)c(Nc3cnccn3)nn2C)ccc1NS(=O)(=O)C(F)F)c1ccc(F)cc1 [Compound 253] . Its Kd was > 30 µM

Entry under test: NC(=O)c1c(-c2ccc(NS(=O)(=O)CC(F)(F)F)c(OCc3ccc(Cl)cn3)c2)n[nH]c1Nc1cnccn1 [Compound 262] . Its Kd was > 30 µM

Entry under test: NC(=O)c1c(-c2ccc(NS(=O)(=O)CC(F)(F)F)c(Oc3ccc(F)cc3)c2)n[nH]c1Nc1cccc(C(F)(F)F)n1 [Compound 148] . Its Kd was > 30 µM

Entry under test: CC(C)(C)S(=O)(=O)Nc1ccc(-c2n[nH]c(Nc3cnccn3)c2C(N)=O)cc1 [Compound 69] . Its Kd was > 30 µM

Entry under test: CCS(=O)(=O)Nc1ccc(-c2n[nH]c(Nc3cnccn3)c2C(N)=O)cc1OCCc1ccccc1 [Compound 210] . Its Kd was > 30 µM

Entry under test: CCS(=O)(=O)Nc1ccc(-c2n[nH]c(Nc3cccc(C(F)F)n3)c2C(N)=O)cc1OCc1ccc(F)cc1 [Compound 179] . Its Kd was > 30 µM
